Let's look at some compounds and their measured T/C.
# System: CD2F1 mice, L1210 leukemia ip, survival T/C
# Method notes: NCI In Vivo Anticancer Drug Screen. Data for tumor model L1210 Leukemia (intraperitoneal) in CD2F1 (CDF1) mice
# Test context: endpoint: mean survival time; dose: 400.0 mg/kg/injection; schedule: Q01DX009 (ip); vehicle: saline; higher = longer survival
Inconclusive results and toxic doses are left out.
Quantity kind: T/C

In [3]: df
Out[3]:
                                   compound                                 tested_on           result
0         CC1CN(C)CCN1C (centres undefined)  CD2F1 mice, L1210 leukemia ip, survival T/C  98 % of control
1         CSCC(N)C(=O)O (centres undefined)  CD2F1 mice, L1210 leukemia ip, survival T/C  97 % of control
2  COC(=O)C(N)CSCc1ccccc1 (centres undefined)  CD2F1 mice, L1210 leukemia ip, survival T/C  98 % of control
3                         C#CC(C)(C)CC(=O)O  CD2F1 mice, L1210 leukemia ip, survival T/C  98 % of control
